assay: budding yeast growth changes without added modifier – OD600, strain BY4716, 24 h, basal condition, primary screen (AID 1173); conditions: S. cerevisiae BY4716 growth, OD600, 24 h; higher = more signal, called active from +8 up or from −8 down

Compound | z-score
O=C(N1CCCCC1)[C@]1(CCS(=O)(=O)c2ccccc2)N=C(c2ccc(OCCCO)cc2)O[C@@H]1c1ccccc1 | -0.678
Cc1ccc(S[C@]2(C(=O)NCCCN(C)C)CC(=O)N(C(C)C)[C@@H]2c2ccc(CO)cc2I)cc1 | -3.52
CC(=O)NCCCC[C@@H]1NC(=O)[C@@H]2C[C@H](C(=O)NCc3ccc(F)cc3)[C@H](c3ccc(O)cc3)N2C1=O | -0.462
O=C1C[C@@](C(=O)O)(c2ccc([N+](=O)[O-])cc2)[C@@H](c2ccc(CO)cc2I)N1CC12CC3CC(CC(C3)C1)C2 | -4.78
CC1CC/C=C\[C@H]2OC34C=CCN(Cn5nnc6ccccc65)C(=O)[C@H]3N(CCCO)C(=O)[C@@H]4C2C(=O)O1 (some centres not stated) | 1.06
COC(=O)[C@@]1(Cc2ccc(OC)cc2)[C@H]2c3cc(C(=O)N4CCCC4)n(CCc4ccccn4)c3C[C@H]2CN1C(=O)c1ccccc1 | 1.17
COc1ccc([Si](C)(C)[C@@H]2[C@@H](CC(=O)N3Cc4ccccc4C[C@H]3CO)O[C@]3(C(=O)N(Cc4cccc(N5C(=O)COc6ccccc65)c4)c4ccccc43)[C@H]2C)cc1 | -1.17
